Test system: Entamoeba histolytica
Assay: Amoebicidal activity against trophozoite stage of Entamoeba histolytica HM-1:IMSS assessed as growth inhibition after 72 hrs by carboxyfluorescein diacetate/propidium iodide staining-based fluorescence microscopic analysis
Type: functional, organism-based
readoutLabel: pIC50
Scale: negative log10 of molar concentration, which is what pIC50 denotes.

Ask: Identify measured pIC50 obtained with Entamoeba histolytica for "C(=N\N(c1ccccc1)c1ccccc1)/c1ccccc1" .
Reply: 4.11

Ask: Identify measured pIC50 obtained with Entamoeba histolytica for "Cc1ncc([N+](=O)[O-])n1CCO" .
Reply: 5.17

Ask: Identify measured pIC50 obtained with Entamoeba histolytica for "C(=N\Nc1ccccc1)/c1ccco1" .
Reply: 3.92

Ask: Identify measured pIC50 obtained with Entamoeba histolytica for "C(=N\N(c1ccccc1)c1ccccc1)/c1cccs1" .
Reply: 5.12

Ask: Identify measured pIC50 obtained with Entamoeba histolytica for "O=[N+]([O-])c1ccc(-c2ccc(/C=N/N=C/c3ccc(-c4ccc([N+](=O)[O-])cc4)o3)o2)cc1" .
Reply: 4.89

Ask: Identify measured pIC50 obtained with Entamoeba histolytica for "O=C(/C(=N/N=C(/C(=O)c1ccccc1)c1ccccc1)c1ccccc1)c1ccccc1" .
Reply: 4.74

Ask: Identify measured pIC50 obtained with Entamoeba histolytica for "O=[N+]([O-])c1cccc(/C=N/N(c2ccccc2)c2ccccc2)c1" .
Reply: 4.72

Ask: Identify measured pIC50 obtained with Entamoeba histolytica for "O=[N+]([O-])c1ccc(-c2ccc(/C=N/N(c3ccccc3)c3ccccc3)o2)cc1" .
Reply: 4.80

Ask: Identify measured pIC50 obtained with Entamoeba histolytica for "C(=N\N=C\c1ccccc1)/c1ccccc1" .
Reply: 4.02

Ask: Identify measured pIC50 obtained with Entamoeba histolytica for "O=[N+]([O-])c1ccc(-c2ccc(/C=N/Nc3ccccc3)o2)cc1" .
Reply: 6.01
